Experimental Protocol: qHTS assay for MDR1-selective chemotherapeutics: Primary screen using the parental adenocarcinoma cell KB-3-1; further: nearly all actives have a fitted effect of over 60% in size; further: potency means the concentration at half of the fitted maximal effect
Applied Conditions: KB-3-1 viability, CellTiter-Glo ATP luminescence, 72 h; series mostly up to 46.1 µM
The campaign covered roughly 400,000 compounds. About 5,500 (1.4%) were called active. Inconclusive results (about 9%) are left out. The sample as a whole holds a higher share of actives than the screen did.
Readout Label: Potency

INSERT INTO measurements (compound, readout_label, result) VALUES
  ('N#Cc1ccc(-c2cccs2)nc1SCc1ccc(Br)cc1', 'Potency', 'inactive'),
  ('CCCN(CCC)C(=O)C(Cc1ccccc1)NS(=O)(=O)c1ccc2c(c1)c(=O)n(C)c(=O)n2C (stereo not given)', 'Potency', 'inactive'),
  ('O=C(Nc1ccc(-c2nc3cc(NC(=O)c4ccccc4Cl)ccc3o2)cc1)c1ccccc1Cl', 'Potency', 'inactive'),
  ('Cc1cc(=O)oc2cc(OCC3CC(c4ccccc4Cl)=NO3)ccc12 (stereo not given)', 'Potency', '1300 nM (active)'),
  ('Cc1cc(Cl)ccc1OCC(=O)N(Cc1ccc(N(C)C)cc1)C1CCS(=O)(=O)C1 (stereo not given)', 'Potency', 'inactive');

---

Experimental Protocol: qHTS assay for MDR1-selective chemotherapeutics: Primary screen using the parental adenocarcinoma cell KB-3-1; further: nearly all actives have a fitted effect of over 60% in size
Applied Conditions: KB-3-1 viability, CellTiter-Glo ATP luminescence, 72 h; series mostly up to 46.1 µM
In all, about 400,000 compounds went through this assay and about 5,500 (1.4%) were called active. Inconclusive results (about 9%) are left out. Calls come from the whole dose curve; as a rule, active = well fitted cell-killing curve with a large enough effect; inconclusive = small, poorly fitted or top-dose-only effect, or effect the other way; inactive = flat fitted curve, though single readings scatter. This excerpt belongs to a sample that is enriched for actives.
Possible outcomes: active, inactive

INSERT INTO measurements (compound, qualitative_label) VALUES
  ('CN(C(=N)N)c1ccc(/C=C2\C=Cc3ccccc32)cc1', 'inactive'),
  ('Cn1nc(-c2ccccc2)c(CSc2cccc(Cl)c2)c1Cl', 'active'),
  ('Clc1ccc(CSc2nncn3c2cc2occc23)cc1', 'inactive'),
  ('COc1ccc2cc(C3=CC(=O)C[C@H](c4ccc5c(c4)OCO5)C3)ccc2c1', 'inactive'),
  ('COc1ccc(CCNc2ncnc3c2cnn3-c2ccc(C)cc2)cc1', 'inactive'),
  ('COc1ccc(Cl)cc1NC(=O)CN(C)C(=O)c1ccc2n[nH]nc2c1', 'inactive'),
  ('Cc1ccc(-c2nn(CCC(=O)Nc3ccc(Cl)c(Cl)c3)c(=O)c3ccccc23)cc1', 'inactive'),
  ('O=C(CC(O)(C(F)(F)F)C(F)(F)F)Nc1ccc(Cl)c(Cl)c1', 'active'),
  ('CCOc1ccc(NC(=O)Cn2c(C)ccc(C#N)c2=O)cc1', 'inactive'),
  ('Cc1ccc(Cc2cnc(NC(=O)/C(C#N)=C/c3ccc(-c4cccc([N+](=O)[O-])c4)o3)s2)cc1', 'active'),
  ('COc1ccc(Cl)cc1NC(=O)CSc1nc(-c2cccs2)cc(C(F)(F)F)n1', 'inactive'),
  ('Cc1nn(Cc2ccc(Cl)cc2)c(Cl)c1/C=N/NC(=O)CNc1ccccc1F', 'inactive'),
  ('COc1ccc(CCNc2ncnc3onc(-c4ccc(Cl)cc4)c23)c(OC)c1', 'inactive'),
  ('COc1ccc(CNC(=O)c2ccc3c(c2)nc2n3CCOC2)c(OC)c1', 'inactive'),
  ('CCOc1ccc(/C=C(\C#N)c2nc3ccccc3c(=O)[nH]2)cc1OC', 'inactive'),
  ('CCc1cc2c(NC(Cc3ccccc3)C(=O)O)ncnc2s1 (configuration not stated)', 'inactive'),
  ('CN(C)c1ccc(/C=C2\C=Cc3ccccc32)cc1Br', 'inactive'),
  ('Cn1cc([N+](=O)[O-])c(C(=O)Nc2ccc3c(c2)OCCO3)n1', 'inactive'),
  ('O=C(Nc1ccc(-c2nc3ccccc3[nH]2)cc1)c1ccncc1', 'inactive'),
  ('COc1ccc(Cl)cc1NC(=O)CN(C)C(=O)c1cc(-c2cccs2)nn1-c1ccccc1', 'active'),
  ('Cn1nc(-c2ccccc2)c(CO)c1Sc1ccccc1', 'inactive'),
  ('O=C(CSc1nnc(-c2ccncc2)n1-c1ccccc1)Nc1ccc(Cl)c(Cl)c1', 'inactive');

---

Experimental Protocol: qHTS assay for MDR1-selective chemotherapeutics: Primary screen using the parental adenocarcinoma cell KB-3-1; further: nearly all actives have a fitted effect of over 60% in size
Applied Conditions: KB-3-1 viability, CellTiter-Glo ATP luminescence, 72 h; series mostly up to 46.1 µM
In all, about 400,000 compounds went through this assay and about 5,500 (1.4%) were called active. Roughly 9% stayed inconclusive and do not appear here. The call rests on the fitted dose curve; in most records, active means well fitted cell-killing curve with a large enough effect; inconclusive means small, poorly fitted or top-dose-only effect, or effect the other way; inactive means flat fitted curve, though single readings scatter. For the sample, actives were picked, then their nearest neighbours and some compounds at random.
Possible outcomes: Yes = active, No = inactive

INSERT INTO assay_data (molecule, qualitative_label) VALUES
  ('CCS(=O)(=O)c1ncc(N(Cc2ccc(F)cc2)Cc2ccco2)c(C(=O)Nc2cc(C)ccc2C)n1', 'No'),
  ('Cc1ccc(S(=O)(=O)CCC(=O)OCC(=O)N(C)Cc2ccccc2)cc1', 'No'),
  ('CC(C)CC(COCc1ccc(Cl)cc1)N1CCN(C(=O)c2ccc(C(F)(F)F)cc2)CCC1=O (stereo not given)', 'Yes'),
  ('CCOCCOC(=O)C1=C(C)NC(=O)NC1c1ccc2c(c1)OCO2 (stereo not given)', 'No'),
  ('CCCCC(CCCC)c1ccc(C=Nc2ccc(/C=C/c3ccnc4ccccc34)cc2)cc1', 'No'),
  ('O=C(c1ccc(C(F)(F)F)cc1)N1CCC(=O)N([C@H](COCc2ccccc2)Cc2ccccc2)CC1', 'No'),
  ('CNc1ccc(-c2nc(-c3ccccc3C)no2)cc1[N+](=O)[O-]', 'No'),
  ('COC(=O)c1c(C)oc(C)c1S(=O)(=O)Nc1ccc(C(C)C)cc1', 'Yes'),
  ('O=C(NCC(c1cccnc1)N1CCc2ccccc21)c1cccc(C(F)(F)F)c1 (stereo not given)', 'No'),
  ('Cc1ccc(CS(=O)(=O)c2ncc(Cl)c(C(=O)Nc3nnc(C)s3)n2)cc1', 'Yes'),
  ('O=C(Nc1nnc(Cc2ccc(Cl)cc2)s1)c1ccncc1', 'No'),
  ('Cc1cccc2sc(N(CCCN(C)C)C(=O)CCS(=O)(=O)c3ccccc3)nc12', 'Yes'),
  ('O=C(NCc1ccc2c(c1)CCN2C(=O)c1ccccc1)c1ccccc1', 'No'),
  ('COc1ccc(C(C#N)=C2C=CC(=NO)c3ccccc32)cc1', 'Yes'),
  ('CC(C)c1ccc(Cn2c(COc3ccccc3)nc3ccccc32)cc1', 'No'),
  ('CCOC(=O)C1=C(CCc2ccccc2)NC(=O)NC1c1ccc2ccccc2c1 (stereo not given)', 'Yes'),
  ('COC(=O)c1ccccc1S(=O)(=O)Nc1ccc(OC)cc1', 'No'),
  ('COc1ccccc1CN1CCC(CNC(=O)c2cnn(-c3ccccc3Cl)c2C2CCN(C(=O)OC(C)(C)C)CC2)CC1', 'No'),
  ('CCOC(=O)C1=C(CN2CCc3ccccc32)NC(=O)NC1c1ccc(Cl)cc1 (stereo not given)', 'No'),
  ('Cc1cccc(NC(=O)c2nc(S(=O)(=O)Cc3ccccc3)ncc2Cl)c1', 'Yes'),
  ('CC(=O)c1cccc(NC(=O)c2nc(-c3ccccc3)n(-c3cccc(C)c3)n2)c1', 'No'),
  ('COc1ccc(C)cc1NC(=O)CCS(=O)(=O)c1cccc2nonc12', 'No'),
  ('COc1ccc(CNC(=O)c2ccc3c(O)c(S(=O)(=O)c4ccccc4)c(=O)[nH]c3c2)cc1', 'No'),
  ('CCOc1ccccc1N(C)C(=O)c1cc2c(s1)-c1ccccc1OC2', 'No'),
  ('O=C(Nc1nnc(Cc2ccc(Cl)cc2)s1)c1cccnc1', 'No'),
  ('COc1ccc(C(=NN)c2ccc(OC)cc2)cc1', 'No'),
  ('COc1ccc(C(=O)/C=C/Nc2ccccn2)cc1', 'No'),
  ('COc1cccc2sc(N(CCCN(C)C)C(=O)CCS(=O)(=O)c3ccccc3)nc12', 'Yes'),
  ('CC[C@]1(O)C[C@@H]2CN(CCc3c([nH]c4ccccc34)[C@@](C(=O)OC)(c3cc4c(cc3OC)N(C)[C@H]3[C@@](O)(C(=O)OC)[C@H](OC(C)=O)[C@]5(CC)C=CCN6CC[C@]43[C@@H]65)C2)C1', 'Yes'),
  ('CCN1CCN(C(c2ccc(C)cc2)c2c(O)cc(C)n(Cc3ccco3)c2=O)CC1 (stereo not given)', 'No'),
  ('CCOc1ccc(NC(=O)Cn2cc(C(=O)c3ccc(C)cc3)c(=O)c3cc4c(cc32)OCCO4)cc1', 'No'),
  ('Cc1ccc(OCC(=O)Nc2ccc(Cl)c(-c3nc4ccccc4[nH]3)c2)cc1C', 'No'),
  ('COc1ccccc1CNC(=O)CS(=O)(=O)c1cccc2nsnc12', 'No'),
  ('Cc1c2cnn(-c3ccccc3)c(=O)c2c(C)n1C(C)C(=O)Nc1ccc(Br)cc1F (stereo not given)', 'No'),
  ('CCN1CCN(C(c2cccnc2)c2cc(Cl)c3cccnc3c2O)CC1 (stereo not given)', 'Yes'),
  ('COc1ccc(CCNC(=O)c2cc3cccc4c3n2CC(C)S4)c(OC)c1OC (stereo not given)', 'No'),
  ('CCCCOC(=O)CSc1ncnc2sc3c(c12)CCC(C)C3 (stereo not given)', 'No'),
  ('O=C(NCc1cccnc1)C(=O)NCC(c1cccnc1)N1CCN(c2ccccc2)CC1 (stereo not given)', 'No'),
  ('Cc1cccc(C)c1NC(=O)CCS(=O)(=O)c1cccc2nsnc12', 'No'),
  ('CCOC(=O)c1ccc(NC(=O)c2c(NCc3cccc(OC)c3)sc3c2CCC3)cc1', 'No');
